- Test system: ATP phosphoribosyltransferase (HisG)
- ASSAY SUMMARY: Degree of inhibition by L-histidine on activities of ATP phosphoribosyltransferase variants
- Type: biochemical, Corynebacterium glutamicum
- RECORDED CONDITIONS: L-histidine 50 mM
PROPERTY NAME: Activity of Enzyme, 50 mM L-histidine (U/mg)
Dear colleague, please return just the value in U/mg, with no unit written.

Please look at this molecule and report its Activity of Enzyme, 50 mM L-histidine: HisG (N215R): ATP phosphoribosyltransferase variant with N215R substitution (protein) MLKIAVPNKGSLSERAMEILAEAGYAGRGDSKSLNVFDEANNVEFFFLRPKDIAIYVAGGQLDLGITGRDLARDSQADVHEVLSLGFGSSTFRYAAPADEEWSIEKLDGKRIATSYPNLVRDDLAARGLSAEVLRLDGAVEVSIKLGVADAIADVVSTGRTLRQQGLAPFGEVLCTSEAVIVGRKDEKVTPEQQILLRRIQGILHAQNFLMLDYRVDRDNLDAATAVTPGLSGPTVSPLARDNWVAVRAMVPRRSANAIMDKLAGLGAEAILASEIRIARI
0

Please look at this molecule and report its Activity of Enzyme, 50 mM L-histidine: HisG (G233H/T235Q): ATP phosphoribosyltransferase variant with G233H and T235Q substitutions (protein) MLKIAVPNKGSLSERAMEILAEAGYAGRGDSKSLNVFDEANNVEFFFLRPKDIAIYVAGGQLDLGITGRDLARDSQADVHEVLSLGFGSSTFRYAAPADEEWSIEKLDGKRIATSYPNLVRDDLAARGLSAEVLRLDGAVEVSIKLGVADAIADVVSTGRTLRQQGLAPFGEVLCTSEAVIVGRKDEKVTPEQQILLRRIQGILHAQNFLMLDYNVDRDNLDAATAVTPGLSHPQVSPLARDNWVAVRAMVPRRSANAIMDKLAGLGAEAILASEIRIARI
0.64

Please look at this molecule and report its Activity of Enzyme, 50 mM L-histidine: HisG (N215K/G233H/T235Q): ATP phosphoribosyltransferase variant N215K/G233H/T235Q (protein) MLKIAVPNKGSLSERAMEILAEAGYAGRGDSKSLNVFDEANNVEFFFLRPKDIAIYVAGGQLDLGITGRDLARDSQADVHEVLSLGFGSSTFRYAAPADEEWSIEKLDGKRIATSYPNLVRDDLAARGLSAEVLRLDGAVEVSIKLGVADAIADVVSTGRTLRQQGLAPFGEVLCTSEAVIVGRKDEKVTPEQQILLRRIQGILHAQNFLMLDYKVDRDNLDAATAVTPGLSHPQVSPLARDNWVAVRAMVPRRSANAIMDKLAGLGAEAILASEIRIARI
0.679

Please look at this molecule and report its Activity of Enzyme, 50 mM L-histidine: HisG (N215R/G233H/T235Q): ATP phosphoribosyltransferase variant N215R/G233H/T235Q, SEQ ID NO: 1 (protein, HisG) MLKIAVPNKGSLSERAMEILAEAGYAGRGDSKSLNVFDEANNVEFFFLRPKDIAIYVAGGQLDLGITGRDLARDSQADVHEVLSLGFGSSTFRYAAPADEEWSIEKLDGKRIATSYPNLVRDDLAARGLSAEVLRLDGAVEVSIKLGVADAIADVVSTGRTLRQQGLAPFGEVLCTSEAVIVGRKDEKVTPEQQILLRRIQGILHAQNFLMLDYRVDRDNLDAATAVTPGLSHPQVSPLARDNWVAVRAMVPRRSANAIMDKLAGLGAEAILASEIRIARI
1.435

Please look at this molecule and report its Activity of Enzyme, 50 mM L-histidine: HisG: wild-type Corynebacterium glutamicum ATP phosphoribosyltransferase, SEQ ID NO: 13 (protein, HisG) MLKIAVPNKGSLSERAMEILAEAGYAGRGDSKSLNVFDEANNVEFFFLRPKDIAIYVAGGQLDLGITGRDLARDSQADVHEVLSLGFGSSTFRYAAPADEEWSIEKLDGKRIATSYPNLVRDDLAARGLSAEVLRLDGAVEVSIKLGVADAIADVVSTGRTLRQQGLAPFGEVLCTSEAVIVGRKDEKVTPEQQILLRRIQGILHAQNFLMLDYNVDRDNLDAATAVTPGLSGPTVSPLARDNWVAVRAMVPRRSANAIMDKLAGLGAEAILASEIRIARI
0
